From: the supplement of paper PMC9170038

- Tested on: MS2 coat protein
- ASSAY PROTOCOL: apparent KD of MS2 coat protein, switch ON state; designed switch direction (-1 OFF switch, 1 ON switch): -1; higher = weaker reporter binding
- CONDITION INFO: FMN input: 0 or 200 uM; Eterna round: R93 (includes R88 designs)
MEASURED PROPERTY: apparent KD of MS2 coat protein
I'd appreciate it if you included the unit after the number.

**Query** Which apparent KD of MS2 coat protein value belongs to AGCUAGUCAGGAUAUGCAUGAAAAAAAAAAAAAAAAAAAAAACAUGAGGAUCACCCAUGUAGAAGGGACUAGCA [Starry Exclusion 2 (jandersonlee round 1 mod)] ?
**Result** 126 nM

**Query** Would you kindly share the measured apparent KD of MS2 coat protein for AGCAGGUGAGGAUAUCGAUUAAGAUUAACAUUAUUAUUAAACGAGAAGGCACAUGAGGAUCACCCAUGUAAGGA [Exclusion 4Col] ?
**Result** 43.4 nM

**Query** May I ask what apparent KD of MS2 coat protein has been recorded for AGGAUGUCAGGAUAUGUGUAAAGAAUAAAACAAAUAACAACACAGAAGGGACAUGAGGAUCACCCAUGUUACCC [May 38] ?
**Result** 17.1 nM
